Biological target: Glycine N-methyltransferase (Homo sapiens, UniProt Q14749)
Sequence (Q14749 whole entry): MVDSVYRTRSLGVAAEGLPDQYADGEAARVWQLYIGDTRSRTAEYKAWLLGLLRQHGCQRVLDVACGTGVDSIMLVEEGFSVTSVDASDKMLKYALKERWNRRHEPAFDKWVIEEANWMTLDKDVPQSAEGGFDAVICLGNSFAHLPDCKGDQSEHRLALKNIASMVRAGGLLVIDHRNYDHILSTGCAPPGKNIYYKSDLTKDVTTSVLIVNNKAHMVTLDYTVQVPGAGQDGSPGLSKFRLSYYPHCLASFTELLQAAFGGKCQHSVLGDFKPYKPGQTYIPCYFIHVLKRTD
Assay: Inhibition of N-terminal His-tagged human recombinant Glycine-N-methyltransferase (1 to 295 residues) expressed in Escherichia coli using glycine and SAM as substrate incubated for 30 mins by HTRF assay
Conditions: read-out: IC50
Readings of IC50 for the listed molecules
Give the value in nM but do not write nM after it.

Example entries begin here.
Enquiry: Report IC50 for `Nc1ncnc2c1ncn2[C@@H]1O[C@H](C(=O)Nc2cccc(C(=O)O)c2)[C@@H](O)[C@H]1O` please.
Return: 2200

Enquiry: Endpoint output: IC50 of `Nc1ncnc2c1ncn2[C@@H]1O[C@H](CN(CCCC(=O)O)CCc2ccccc2)[C@@H](O)[C@H]1O` . Value?
Return: 2700

Enquiry: Recorded IC50 for `Nc1ncnc2c1ncn2[C@@H]1O[C@H](CSCc2cc(O)[nH]n2)[C@@H](O)[C@H]1O` , please?
Return: 640

For the next question, use this molecule.
Enquiry: May I ask what IC50 has been recorded for `Nc1ncnc2c1ncn2[C@@H]1O[C@H](CSc2cccc(C(=O)O)c2)[C@@H](O)[C@H]1O` ?
Return: 150

Value source: ChEMBL document CHEMBL4834465
